Origin of values: the NTF2 design screens of Basanta et al. (2020)

Each entry below lists one item and its recorded protease stability score value.
# ASSAY_PROTOCOL: protease stability score; higher = more stable; yeast display proteolysis, trypsin and chymotrypsin;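 also: log10 excess protease needed over predicted unfolded state with 0 meaning unfolded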

{"RESIDUE_CODES": "DEEAEHVARELQKAQETGNPKRARHMMDENARIQVGDHRIHGMSRYLEDLRRKQEEIRIEFKRVSHNVNGNRVVINFLAVYEVNGHPVHLRIQLSFEIHNGRAQTMDVNISEQQMRDIER", "protease stability score": -0.022}
{"RESIDUE_CODES": "DQQDVDRFTEFLEAVERGDEDRLRELMDKDAKQKVGDKTIEGSEKQVNELNDRARRMRIVLEVHDVKVHNGRLEARADLLVNVNGQPVRDDVVVRVQVHNGKITHVEMHFPEEFKRQMRR", "protease stability score": 0.858}
{"RESIDUE_CODES": "DEEELQSVKEYIENLQTNNESRLRKYADPNAQITVGDKVIHGMEDFQRQMEEDRRHSRISFKSVEFRYHDGKAVVHAEFTHVDNGQPDEVRVDYRFKLHNGRIKSQNVREVK", "protease stability score": -0.331}
{"RESIDUE_CODES": "DREIQHQVTELLEARRRGDEKRLQQNFDPNARMRIGDKEWHGMDTAAEEIAHEQREMRFDVKSIEVRVSGNKVSVDNRYVLEHDGRPHEFVQHDDVEMSNGKFKTAEVKHDG", "protease stability score": -0.408}
{"RESIDUE_CODES": "DEQDDAHKAKEFLEAVVTGNEERLRRMVDPNARIHYGDQEYHGREKIVDLMIRWRERVDHFTIDRVHSHNGRVQMDAFFTHNGRTKRFVARVVVHNGKVKSIEYTDG", "protease stability score": 0.017}
{"RESIDUE_CODES": "DEHKEAEELARQLQRVARHNNPDQFAHMLDKDVKIDIGDKTVHGRENARNMMTELVKDYDSLDAKVDSFDVHNGTIDIKMTFSFNHNGKTTTTSVEFRARKHNGHVRIVYIKYG", "protease stability score": 0.234}
{"RESIDUE_CODES": "DESVRRNFEDLLRAEETGDPDRVMDLVDPNARIQVGDKYLQGREQIDETMERHKSEIRFSIDRLSATDHNGVVDVTMSMKKNVNGKPKKFRAEVNVKAHNGKLKLLDMKIDG", "protease stability score": -0.284}
{"RESIDUE_CODES": "DERLHKQIERLFEQLNTGDEDKYVEYADPNARINVGDKNVHGRDQIRHMIRKENQEIRVEYEVKDIKASNGRARVDATVENEENGRPHTNRIDLVINVHNGRAKEIELRVPEDLLRTMKS", "protease stability score": -0.131}
{"RESIDUE_CODES": "DEEDANRHVREFWKNVETGNEDDLRDLADPNARLFVGDKKYRGRSEMAKAFKEIRKNVDHFELKSVQEKGDKVKVVAVWNHNGRNVEMVVIFVAHNGRIKEVQVRHK", "protease stability score": 0.233}
{"RESIDUE_CODES": "DDHREEQMNRVAETGNFKHLASQLDKDATAFYGDKTVEGREHIQENLNRLHSHIDHIEYKKVEVKNGKVDVDFTAVINGTTFRAQMRLVVHNGRIKTISMRARDEKDKKLIHEWLS", "protease stability score": 0.83}
{"RESIDUE_CODES": "DTDAVRRALKFIDAMQDGDPDKARELMDPNARVNIGDKEYHGMTSFVKDLKRLRDEIRVQYNIRDYNAQGEKIHVTVDVVFEHNGRPVDERFNVTIDIQGDKIKQVTAHRTK", "protease stability score": 1.61}
{"RESIDUE_CODES": "DEEALKFAETFLEVLHKGNPDDLRRLIDENVEIKIGDHEIDGMDNAVKQLHTRIKEINMHIKVDSMKAQGDSIKIHFTREVHRDGRPDTRHATLIMRFNNGELQRFQVDDRQ", "protease stability score": 0.335}
{"RESIDUE_CODES": "DDQKNLEKWVRDFQEVNKTGDPDRFRNLFPPNAEMTIGDKTIKGSETVREYMEHLVNRYDHLDVQVESIHAEGDKLTVKLRLVFNTNGKNDQYVNKVLLDDHNGRLKAHEVHQE", "protease stability score": 0.7}
